- Test system: COR-L 105
- TEST METHOD NOTES: relative viability (nuclei count vs DMSO), 5 days (fraction); higher = more cells survive
- MEASUREMENT CONDITIONS: first compound 158.11 µM
ENDPOINT: relative viability
Could you keep your reply to the number by itself?

Item O=C(O)CCCCC(CCSCc1ccccc1)SCc1ccccc1 (stereo not drawn) [CPI-613] + Cc1nc(Nc2ncc(C(=O)Nc3c(C)cccc3Cl)s2)cc(N2CCN(CCO)CC2)n1 [Dasatinib] (partner 0.075 µM) has what recorded relative viability?
0.278

Item O=C(O)CCCCC(CCSCc1ccccc1)SCc1ccccc1 (stereo not drawn) [CPI-613] + O=C(c1cc(Cc2n[nH]c(=O)c3ccccc23)ccc1F)N1CCN(C(=O)C2CC2)CC1 [Olaparib] (partner 8 µM) has what recorded relative viability?
0.268

Item O=C(O)CCCCC(CCSCc1ccccc1)SCc1ccccc1 (stereo not drawn) [CPI-613] + O=C(CCCCCCC(=O)Nc1ccccc1)NO [Vorinostat] (partner 1 µM) has what recorded relative viability?
0.375

The measured values listed here are drawn from the supplement of paper PMC10307832.
